Value source: paper PMC6561178

# target-or-test-system: Ec65 (Escherichia coli, UniProt P0A6X3 1-65, del66-102)
# method-description: EMSA; Hill n 1.7; EMSA: 34 mM Tris-HCl pH 7.5, 50 mM NaCl, 50 mM KCl, 50 mM NH4Cl, 11.4 mM EDTA, 12% glycerol, 30 C, 30 min, ~1 nM 32P-RNA, Kd in Hfq6; anisotropy: 10 mM Tris-HCl
# condition-label: protein: recombinant; tags: untagged; chain copies: 6; label: 32P; stem-loops
outcome-measure: pKd
pKd here is simply -log10 of the concentration when that concentration is written in mol/L.

Query: Output measured pKd for this item: R133 (structured_RNA) RNA: GGAGCCCUUUCGGGCGUUUCCUCCCAAUGACUCGGCCGCCCUCUUCUCCUGGAGGGCGGCCGUUCUUUU
Response: 7.67
